- System: Endothelial lipase (EL) (Homo sapiens (Human), UniProt Q9Y5X9)
- Sequence (Q9Y5X9 21-500): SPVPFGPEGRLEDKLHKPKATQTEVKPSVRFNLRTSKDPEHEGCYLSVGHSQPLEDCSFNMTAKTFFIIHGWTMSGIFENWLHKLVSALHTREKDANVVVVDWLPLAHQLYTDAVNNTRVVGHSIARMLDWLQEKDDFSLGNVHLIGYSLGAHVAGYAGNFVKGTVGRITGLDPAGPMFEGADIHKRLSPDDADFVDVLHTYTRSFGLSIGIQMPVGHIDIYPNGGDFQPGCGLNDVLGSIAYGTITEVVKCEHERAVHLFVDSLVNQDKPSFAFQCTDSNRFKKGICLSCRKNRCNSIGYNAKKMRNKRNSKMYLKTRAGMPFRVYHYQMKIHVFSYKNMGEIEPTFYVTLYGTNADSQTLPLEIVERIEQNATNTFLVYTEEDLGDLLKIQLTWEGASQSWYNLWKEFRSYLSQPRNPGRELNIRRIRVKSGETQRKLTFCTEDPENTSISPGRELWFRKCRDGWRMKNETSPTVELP
- Experiment Description: EL assay: endothelial lipase activity with fluorescent substrate A10070 in DMPG vesicles
- Format: biochemical
- Experimental: Endothelial lipase (EL) and hepatic lipase (HL) activities were measured using a fluorescent substrate, A10070, (Invitrogen, CA) doped into an artificial vesicle containing DMPG (Avanti Polar Lipids) as the excipient. […] The enzymatic assay was measured using 384-well white Optiplates. […] The reaction rates were measured on a Gemini plate reader with an excitation wavelength of 490 nm and an emission wavelength of 530 nm. […]
Catalogue of compounds with associated IC50

Use these answered entries as a reference point.
compound="COCCn1cc(-c2ccc3sc(C(C(=O)NCCS(N)(=O)=O)S(C)(=O)=O)nc3c2)cn1 (stereo not shown) [Example B90]" measured_value="< 10 nM"
compound="COc1ccc(-c2ccc3sc(C(C(=O)NCCS(N)(=O)=O)S(C)(=O)=O)nc3c2)cn1 (stereo not shown) [Example B87]" measured_value="0.5 nM"

Query: Quick check: IC50 of COc1cc(-c2ccc3nc(C(C(=O)NCCS(N)(=O)=O)S(C)(=O)=O)sc3c2)c(F)cn1 (stereo not shown) [Example B142] ?
Result: > 10 nM

Query: Quick check: IC50 of Cn1cc(-c2cc3sc(C(C(=O)NCCS(N)(=O)=O)S(=O)(=O)Cc4ccccc4)nc3cc2F)cn1 (stereo not shown) [Example B138] ?
Result: < 10 nM

====

- System: hepatic lipase (HL) (Homo sapiens (Human), UniProt P11150)
- Sequence (P11150 23-499, species assumed): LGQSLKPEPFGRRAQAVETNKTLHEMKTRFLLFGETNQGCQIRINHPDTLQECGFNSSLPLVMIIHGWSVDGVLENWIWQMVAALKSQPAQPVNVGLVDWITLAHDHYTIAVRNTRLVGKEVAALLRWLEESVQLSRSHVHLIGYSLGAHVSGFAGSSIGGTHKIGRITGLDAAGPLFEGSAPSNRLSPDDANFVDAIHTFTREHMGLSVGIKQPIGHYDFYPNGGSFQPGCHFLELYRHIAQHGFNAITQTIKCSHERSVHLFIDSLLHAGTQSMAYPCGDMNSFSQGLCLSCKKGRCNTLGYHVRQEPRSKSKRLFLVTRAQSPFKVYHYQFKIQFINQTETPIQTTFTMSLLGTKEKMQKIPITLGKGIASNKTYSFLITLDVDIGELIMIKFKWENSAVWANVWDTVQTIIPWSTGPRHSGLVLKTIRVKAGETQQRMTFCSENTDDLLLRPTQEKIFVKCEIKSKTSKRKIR
- Experiment Description: HL assay: hepatic lipase activity with fluorescent substrate A10070 in DMPG vesicles
- Format: biochemical
Measurement Name: IC50 (nM)

Use these answered entries as a reference point.
molecule="Cc1nnc(CNC(=O)C(c2nc3ccc(-c4ccc(C(=O)N5CC(F)(F)C5)cc4)cc3s2)S(C)(=O)=O)o1 (centres unmarked)" measured_value=53.3
molecule="CS(=O)(=O)C(C(=O)NCCS(N)(=O)=O)c1nc2cc(-c3ccnc(F)c3)ccc2s1 (centres unmarked) [Example B369]" measured_value=414
molecule="COc1ccc(CN(Cc2ccc(OC)cc2)S(=O)(=O)CCNC(=O)C(c2nc3ccc(-c4ccccc4)cc3s2)S(C)(=O)=O)cc1 (centres unmarked)" measured_value=11
molecule="Cc1cc2nc(C(C(=O)NCCS(N)(=O)=O)S(=O)(=O)CCC(F)(F)F)sc2cc1-c1ccc(F)nc1 (centres unmarked)" measured_value=13
molecule="COC1CN(C(=O)c2ccc(-c3ccc4nc(C(C(=O)NCCS(N)(=O)=O)S(=O)(=O)Cc5ccc(F)cc5)sc4c3)cc2)C1 (centres unmarked)" measured_value=52
molecule="COCCN(C)C(=O)c1ccc(-c2ccc3nc(C(C(=O)NCCS(N)(=O)=O)S(=O)(=O)CCC(F)(F)F)sc3c2)cc1 (centres unmarked)" measured_value=114
molecule="COCC(C)(C)NC(=O)c1ccc(-c2ccc3nc(C(C(=O)NCCS(N)(=O)=O)S(=O)(=O)Cc4ccc(OC(F)(F)F)cc4)sc3c2)cc1 (centres unmarked)" measured_value=29.4
molecule="Cc1nnc(CNC(=O)C(c2nc3cc(C)c(-c4cnn(CCN5CCOCC5)c4)cc3s2)S(C)(=O)=O)o1 (centres unmarked)" measured_value=229
molecule="NS(=O)(=O)CCNC(=O)C(c1nc2ccc(-c3ccccc3)cc2s1)S(=O)(=O)Cc1ccc(F)cc1 (centres unmarked)" measured_value=11
molecule="CS(=O)(=O)C(C(=O)NCCS(N)(=O)=O)c1nc2ccc(-c3ccc(CCO)cc3)cc2s1 (centres unmarked)" measured_value=35

1. Cc1cc2nc(C(C(=O)NCCS(N)(=O)=O)S(C)(=O)=O)sc2cc1-c1ccc(C(=O)N2CCOCC2)cc1 (centres unmarked)
2. Cc1nnc(CNC(=O)C(c2nc3ccc(-c4ccc(O)cc4)cc3s2)S(=O)(=O)Cc2ccccc2)o1 (centres unmarked)
Query: In terms of reported IC50, does 1 or 2 have the smaller number? Write down the label of the entry you select.
Result: 1
(1: 90.5 nM, 2: 259 nM)

Origin of the recorded values: patent US8987314B2
